target of assay: human vitamin D-binding protein (hDBP) (Homo sapiens, UniProt P02774)
Sequence (P02774 17-474): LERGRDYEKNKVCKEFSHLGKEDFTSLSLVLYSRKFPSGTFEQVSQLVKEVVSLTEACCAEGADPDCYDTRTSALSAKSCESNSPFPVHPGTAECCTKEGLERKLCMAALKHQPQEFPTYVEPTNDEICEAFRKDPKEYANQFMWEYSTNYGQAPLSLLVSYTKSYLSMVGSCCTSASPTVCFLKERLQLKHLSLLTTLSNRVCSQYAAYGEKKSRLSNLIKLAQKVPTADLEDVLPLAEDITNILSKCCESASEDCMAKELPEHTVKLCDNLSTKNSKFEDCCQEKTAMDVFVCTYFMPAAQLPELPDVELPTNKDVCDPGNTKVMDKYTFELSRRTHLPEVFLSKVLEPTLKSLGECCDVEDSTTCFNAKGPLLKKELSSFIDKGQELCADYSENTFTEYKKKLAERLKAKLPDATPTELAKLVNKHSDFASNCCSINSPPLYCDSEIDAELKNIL
procedure summary: Relative Competitive Index assay, vitamin D-binding protein
test settings: RCI of 1α,25(OH)2 D3 set to 100; 4° C., pH 7.4
Vit D Binding Protein (RCI): recorded values

Example results:
>  <structure as smiles>
C[C@H](CCCC(C)(C)O)[C@H]1CC[C@H]2C3=CC=C4C[C@@H](O)C[C@H](O)[C@@]4(C)[C@@H]3CC[C@]12C

>  <measured property>
Vit D Binding Protein (RCI)

>  <recorded measurement>
-0.7

$$$$
>  <structure as smiles>
C=C1CC[C@H](O)C/C1=C/C=C1\CCC[C@]2(C)[C@@H]([C@H](C)Cc3ccc(O)cc3)CC[C@@H]12

>  <measured property>
Vit D Binding Protein (RCI)

>  <recorded measurement>
211,000

$$$$
>  <structure as smiles>
C=C1/C(=C\C=C2/CCC[C@]3(C)[C@@H]([C@H](C)Cc4cccc(O)c4)CC[C@@H]23)C[C@@H](O)C[C@@H]1O

>  <measured property>
Vit D Binding Protein (RCI)

>  <recorded measurement>
980

$$$$

# evaluate next
Query: Determine reported Vit D Binding Protein (RCI) for "C=C1CC[C@H](O)C/C1=C/C=C1\CCC[C@]2(C)[C@@H]([C@H](C)Cc3cccc(O)c3)CC[C@@H]12" ; test system: human vitamin D-binding protein (hDBP) (Homo sapiens, UniProt P02774).
Reply: 132,000

* * *

target of assay: nuclear receptor for 1α,25(OH)2 D3 [VDRnuc] (Gallus gallus, UniProt O42392)
Construct: VDRnuc receptor preparation from chick intestine mucosa; from tissue; host or cells: chick intestinal mucosa
Sequence (O42392 whole entry): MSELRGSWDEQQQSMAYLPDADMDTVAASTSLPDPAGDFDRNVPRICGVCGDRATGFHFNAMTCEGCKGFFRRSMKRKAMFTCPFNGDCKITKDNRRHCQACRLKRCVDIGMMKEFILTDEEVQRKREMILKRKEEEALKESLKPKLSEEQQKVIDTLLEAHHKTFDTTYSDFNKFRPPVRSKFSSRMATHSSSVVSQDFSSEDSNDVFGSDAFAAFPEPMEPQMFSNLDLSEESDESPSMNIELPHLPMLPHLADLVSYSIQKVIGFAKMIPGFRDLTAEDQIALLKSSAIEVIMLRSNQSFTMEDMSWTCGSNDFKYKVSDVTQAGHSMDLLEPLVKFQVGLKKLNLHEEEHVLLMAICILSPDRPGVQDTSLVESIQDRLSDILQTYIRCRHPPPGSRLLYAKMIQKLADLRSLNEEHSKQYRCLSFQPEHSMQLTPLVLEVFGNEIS
procedure summary: Relative Competitive Index (steroid competition) assay, nuclear receptor VDRnuc
Assay type: binding, chick
Design: key: % relative to 1α,25(OH)2D3 binding (RCI = 100%)
test settings: RCI of 1α,25(OH)2 D3 = 100
Simple rule here: Nuclear 1α,25-D Receptor (RCI) less than 3 is fulfilled, otherwise not fulfilled.

See these solved cases before continuing.
>  <compound>
C=C1/C(=C\C=C2/CCC[C@]3(C)[C@@H]([C@H](C)Cc4cccc(O)c4)CC[C@@H]23)C[C@@H](O)C[C@@H]1O

>  <answer label>
not fulfilled

$$$$
>  <compound>
CC1=C(C=C=C2CCC[C@]3(C)[C@@H]([C@H](C)CCCC(C)(C)O)CC[C@@H]23)C[C@@H](O)C[C@@H]1O [JV]

>  <answer label>
fulfilled

$$$$
>  <compound>
C=C1/C(=C\C=C2/CCC[C@]3(C)[C@@H]([C@H](C)CCCC(C)(C)O)C[C@@H]4C[C@@]243)C[C@@H](O)C[C@@H]1O

>  <answer label>
not fulfilled

$$$$
>  <compound>
C[C@H](CCCC(C)(C)O)[C@H]1CC[C@H]2C3=CC=C4C[C@@H](O)C[C@H](O)[C@@]4(C)[C@H]3CC[C@]12C

>  <answer label>
fulfilled

$$$$
>  <compound>
C=C1/C(=C\C=C2/CCC[C@]3(C)[C@@H]([C@H](C)Cc4ccc(O)cc4)CC[C@@H]23)C[C@@H](O)C[C@@H]1O

>  <answer label>
not fulfilled

$$$$

Now consider a different compound.
Query: For this compound, is Nuclear 1α,25-D Receptor (RCI) lower than 3? "CC1=C(/C=C\C2=CCC[C@@]3(C)[C@@H]2CC[C@@H]3[C@H](C)CCCC(C)(C)O)C[C@@H](O)C[C@@H]1O"
Reply: fulfilled

* * *

target of assay: nuclear receptor for 1α,25(OH)2 D3 [VDRnuc] (Gallus gallus, UniProt O42392)
Construct: VDRnuc receptor preparation from chick intestine mucosa; from tissue; host or cells: chick intestinal mucosa
procedure summary: Relative Competitive Index (steroid competition) assay, nuclear receptor VDRnuc
Type: binding, chick
test settings: 1α,25(OH)2 D3 = 100%; FIG. 8: chick intestine mucosa
Binding to VDRnuc relative to 1α,25(OH)2 D3 (RCI): recorded values
Expressed in %, but write only the number.

Example results:
>  <compound>
C=C1/C(=C\C=C2/CCC[C@]3(C)[C@@H]([C@H](C)C=C=CC(C)(C)O)CC[C@@H]23)C[C@@H](O)C[C@@H]1O [HR]

>  <recorded measurement>
52

$$$$
>  <compound>
C=C1/C(=C\C=C2/CCC[C@]3(C)[C@@H]([C@H](C)Cc4cccc(O)c4)CC[C@@H]23)C[C@@H](O)C[C@@H]1O [DE]

>  <recorded measurement>
29

$$$$
>  <compound>
C=C1/C(=C\C=C2/CCC[C@]3(C)[C@@H]([C@H](C)Cc4ccc(O)cc4)CC[C@@H]23)C[C@@H](O)C[C@@H]1O [DF]

>  <recorded measurement>
5

$$$$
>  <compound>
C=C1/C(=C\C=C2/CCC[C@]3(C)[C@@H]([C@H](C)CCCC(C)(C)O)C[C@@H]4C[C@@]243)C[C@@H](O)C[C@@H]1O [LO]

>  <recorded measurement>
98

$$$$
>  <compound>
C=C1/C(=C\C=C2/CCC[C@]3(C)[C@@H]([C@H](C)Cc4cccc(C(C)(C)O)c4)CC[C@@H]23)C[C@@H](O)C[C@@H]1O [EV]

>  <recorded measurement>
62

$$$$

# evaluate next
Query: For C=C1/C(=C\C=C2/CCC[C@]3(CO)[C@@H]([C@H](C)CCCC(C)(C)O)CC[C@@H]23)C[C@@H](O)C[C@@H]1O [HS] , write its Binding to VDRnuc relative to 1α,25(OH)2 D3 (RCI).
Reply: 25

* * *

Test system: rapid responses (VDRmem)
procedure summary: Antagonist function (summary classification)
test settings: Yes/No, Tables 1 and 6
measured property: Antagonist

Example results:
>  <compound>
C[C@H](CCCC(C)(C)O)[C@H]1CC[C@H]2C3=CC=C4C[C@@H](O)C[C@H](O)[C@]4(C)[C@H]3CC[C@]12C [JM]

>  <target of assay>
rapid responses (VDRmem)

>  <Antagonist>
No

$$$$
>  <compound>
CC1=C(C=C=C2CCC[C@]3(C)[C@@H]([C@H](C)CCCC(C)(C)O)CC[C@@H]23)C[C@@H](O)C[C@@H]1O [JW]

>  <target of assay>
rapid responses (VDRmem)

>  <Antagonist>
No

$$$$
>  <compound>
CC1=C(C=C=C2CCC[C@]3(C)[C@@H]([C@H](C)CCCC(C)(C)O)CC[C@@H]23)C[C@@H](O)C[C@@H]1O [JV]

>  <target of assay>
rapid responses (VDRmem)

>  <Antagonist>
No

$$$$
>  <compound>
C=C1/C(=C\C=C2/CCC[C@@]3(C)[C@@H]2CC[C@@H]3[C@H](C)CCCC(C)(C)O)C[C@@H](O)C[C@@H]1O [GE]

>  <target of assay>
rapid responses (VDRmem)

>  <Antagonist>
No

$$$$
>  <compound>
C[C@H](CCCC(C)(C)O)[C@H]1CC[C@H]2C3=CC=C4C[C@@H](O)C[C@H](O)[C@@]4(C)[C@@H]3CC[C@]12C [JN]

>  <target of assay>
rapid responses (VDRmem)

>  <Antagonist>
No

$$$$

Query: For C[C@H](CCCC(C)(C)O)[C@H]1CC[C@H]2C3=CC=C4C[C@@H](O)C[C@H](O)[C@]4(C)[C@@H]3CC[C@]12C [JP] , write its Antagonist.
Reply: No

Query: For C=C1/C(=C\C=C2/CCC[C@]3(C)[C@@H]([C@H](C)C=C=CC(C)(C)O)CC[C@@H]23)C[C@@H](O)C[C@@H]1O [HR] , write its Antagonist.
Reply: No

Query: For C=C1CC[C@H](O)C/C1=C/C=C1\CCC[C@]2(C)[C@@H]([C@H](C)Cc3ccc(O)cc3)CC[C@@H]12 [JX] , write its Antagonist.
Reply: No

Query: For CC1=C(/C=C\C2=CCC[C@@]3(C)[C@@H]2CC[C@@H]3[C@H](C)CCCC(C)(C)O)C[C@@H](O)C[C@@H]1O [GF] , write its Antagonist.
Reply: No

Query: For C=C1/C(=C/C=C2/CCC[C@]3(C)[C@@H]([C@H](C)CCCC(C)(C)O)CC[C@@H]23)C[C@@H](O)C[C@@H]1O [JS] , write its Antagonist.
Reply: No

Query: For C=C1/C(=C\C=C2/CCC[C@]3(C)[C@@H]([C@H](C)CCCC(C)(C)O)C[C@@H]4C[C@@]243)C[C@@H](O)C[C@@H]1O [LO] , write its Antagonist.
Reply: No

Query: For C=C1/C(=C\C=C2/CCC[C@]3(C)[C@@H]([C@H](C)Cc4cccc(C(C)(C)O)c4)CC[C@@H]23)C[C@@H](O)C[C@@H]1O [EV] , write its Antagonist.
Reply: No

Query: For C=C1/C(=C\C=C2/CCC[C@]3(C)[C@@H]([C@H](C)C#Cc4cccc(C(C)(C)O)c4)CC[C@@H]23)C[C@@H](O)C[C@@H]1O [IB] , write its Antagonist.
Reply: No
